- Assay Comment: NCI Yeast Anticancer Drug Screen. Data for the mec2-1 strain (AID 157)
- Study Conditions: S. cerevisiae mec2-1 strain, at 50.0 µM (retest, dose inferred, filed as 5.0), stronger effect = higher value
This is part of a sample that, as a whole, favours compounds with a hit. Of some 79,000 tested, about 15% had one in any assay.
growth inhibition below 20% gives not met; growth inhibition at or above it gives met.

Q: Threshold query (growth inhibition >= 20%) on CC(C)(C)C1=CC(=CC=C2C=CN(CCO)C=C2)C=C(C(C)(C)C)C1=O
Ans: met

Q: Threshold query (growth inhibition >= 20%) on COc1c2c(cc3ccc(=O)oc13)C(Cl)C(Cl)O2 (centres undefined)
Ans: met

Q: Threshold query (growth inhibition >= 20%) on CCN(CC)CCOc1ccc(C(O)(Cc2ccc(Cl)cc2)c2ccccc2)cc1 (centres undefined)
Ans: met

Q: Threshold query (growth inhibition >= 20%) on COc1ccccc1NC(=O)CC(=O)N1N=C(C)C(N=Nc2ccc(I)cc2)C1=O (centres undefined)
Ans: met

Q: Threshold query (growth inhibition >= 20%) on O=S(=O)(c1ccc2c(c1)CCCN2)N1CCC[C@H]2CCCC[C@@H]21
Ans: met
